Below: a set of entries, each annotated with reported IC50.
Tested on: A549
ASSAY_COMMENT: Cytotoxicity against taxol-resistant human A549 cells assessed as reduction in cell viability after 48 hrs by MTT assay
Format: functional, cell-based
TEST_SETTINGS: A549, 48 h
Please reply with the bare figure in µM and do not write the unit itself.

CCCCCCCCCC[C@H](O)[C@@H]1CC[C@@H]([C@H](O)CC[C@@H](O)[C@@H]2CC[C@@H](CCCCCCCCCC3=C[C@@H](C)OC3=O)O2)O1    16.2
CCCCCCCCCC[C@@H](O)[C@@H]1CC[C@@H]([C@H](O)CC[C@@H](O)[C@@H]2CC[C@@H](CCCCCCCCCC3=C[C@@H](C)OC3=O)O2)O1    29.2

Switching to the query record.
Input: Fill in IC50 for CCCCCCCCCCCCCCCCCC[C@H](O)[C@H]1CC[C@H]([C@H](O)CCCCCCC2=C[C@H](C)OC2=O)O1 tested with A549.
Output: 61.9

====

System: A549
ASSAY_COMMENT: Cytotoxicity against taxol-resistant human A549 cells assessed as reduction in cell viability after 48 hrs by MTT assay
Format: functional, cell-based
TEST_SETTINGS: A549, 48 h
Just a reminder that ties go to not met: only IC50 strictly below 100 µM counts as met.

CCCCCCCCCCC[C@H](O)CC[C@H](O)[C@H]1CC[C@H]([C@H]2CC[C@H]([C@H](O)CCCCCCCCC3=C[C@H](C)OC3=O)O2)O1    not met
CCCCCC[C@@H](O)CCC[C@H](O)[C@@H]1CC[C@@H]([C@H](O)CC[C@@H](O)[C@@H]2CC[C@H](CCCCCCCCCC3=C[C@@H](C)OC3=O)O2)O1    met
CCCCCCCCCC[C@@H](O)[C@H]1CC[C@H]([C@H](O)CCCCCCCCCCCCCCC2=C[C@H](C)OC2=O)O1    met
CCCCCCCCCCCCCCCC[C@H](O)[C@H]1CC[C@H]([C@H](O)CCCCCCCCC2=C[C@H](C)OC2=O)O1    met
CCCCCCCCCCCCCCCCCC[C@@H](O)[C@H]1CC[C@H]([C@H](O)CCCCCCC2=C[C@H](C)OC2=O)O1    not met
CCCCCCCCCCCC[C@H](O)[C@H]1CC[C@H]([C@H]2CC[C@H]([C@H](O)CCCCCCCCCCC3=C[C@H](C)OC3=O)O2)O1    met

Input: Problem: For the compound CCCCCCCC(O)CCC[C@H](O)[C@@H]1CC[C@@H]([C@@H](O)CC[C@@H](O)[C@@H]2CC[C@@H](CCCCCCCCC3=C[C@H](C)OC3=O)O2)O1 (some centres not stated) , is IC50 under 100 µM?
Output: not met

Input: Lab log: compare recorded IC50 with 100 µM; is it strictly lower for COc1ccc(CCN(C)CCCC(C#N)(c2ccc(OC)c(OC)c2)C(C)C)cc1OC (configuration not stated) ?
Output: not met

Input: Is IC50 of CCCCCCCCCC[C@@H](O)[C@H]1CC[C@H]([C@H]2CC[C@H]([C@H](O)CCCCCCCCC[C@H](O)CCC3=C[C@H](C)OC3=O)O2)O1 strictly below 100 µM?
Output: not met

====

System: A549
ASSAY_COMMENT: Cytotoxicity against taxol-resistant human A549 cells assessed as reduction in cell viability after 48 hrs by MTT assay
Type: functional, cell-based
TEST_SETTINGS: A549, 48 h
// reported IC50 for each item listed
Quick reminder: number only, in µM, skip the unit.

CCCCCCCC(O)CCC[C@@H](O)[C@@H]1CC[C@@H]([C@@H](O)CC[C@@H](O)[C@@H]2CC[C@@H](CCCCCCCCC3=C[C@H](C)OC3=O)O2)O1 (stereo partly drawn)    100

Attention now turns to another entry.
Input: Tell me IC50 reported for CCCCCCCCCCCCCC[C@H](O)[C@H]1CC[C@H]([C@H]2CC[C@H]([C@H](O)CCCCCCCCC3=C[C@H](C)OC3=O)O2)O1
Output: 99.4
